Some molecules, each annotated with its measured EC50.
Molecular target: mTLR7 (Mus musculus, UniProt P58681)
Sequence (P58681 27-1050): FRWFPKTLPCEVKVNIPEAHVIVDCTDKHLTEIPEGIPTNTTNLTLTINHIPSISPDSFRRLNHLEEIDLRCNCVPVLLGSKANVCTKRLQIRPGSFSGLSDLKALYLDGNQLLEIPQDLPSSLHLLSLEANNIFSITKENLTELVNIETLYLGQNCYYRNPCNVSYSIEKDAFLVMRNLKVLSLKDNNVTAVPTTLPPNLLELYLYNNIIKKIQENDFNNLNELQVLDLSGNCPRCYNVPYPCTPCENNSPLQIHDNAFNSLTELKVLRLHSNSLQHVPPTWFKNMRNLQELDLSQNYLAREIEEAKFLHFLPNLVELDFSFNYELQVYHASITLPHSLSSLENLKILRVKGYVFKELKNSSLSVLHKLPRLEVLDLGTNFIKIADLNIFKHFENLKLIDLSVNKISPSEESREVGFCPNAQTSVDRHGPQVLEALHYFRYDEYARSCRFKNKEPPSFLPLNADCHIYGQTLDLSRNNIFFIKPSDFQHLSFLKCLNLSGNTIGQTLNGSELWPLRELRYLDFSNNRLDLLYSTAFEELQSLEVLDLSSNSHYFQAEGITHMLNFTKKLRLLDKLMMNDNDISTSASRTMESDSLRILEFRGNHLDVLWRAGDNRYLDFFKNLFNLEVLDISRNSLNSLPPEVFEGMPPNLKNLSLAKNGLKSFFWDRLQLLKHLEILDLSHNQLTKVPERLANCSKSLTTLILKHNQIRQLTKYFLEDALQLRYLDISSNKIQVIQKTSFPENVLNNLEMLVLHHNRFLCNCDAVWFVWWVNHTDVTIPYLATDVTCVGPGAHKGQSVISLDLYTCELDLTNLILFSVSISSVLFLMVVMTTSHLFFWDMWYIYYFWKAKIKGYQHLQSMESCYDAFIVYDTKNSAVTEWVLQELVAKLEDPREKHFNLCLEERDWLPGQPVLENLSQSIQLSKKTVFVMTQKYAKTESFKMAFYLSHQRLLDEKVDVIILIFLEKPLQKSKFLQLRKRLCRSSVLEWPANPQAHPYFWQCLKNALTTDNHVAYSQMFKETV
Experiment: Reporter Gene Assay (RGA), HEK-Blue mTLR7 reporter cells, SEAP readout
Conditions: overnight incubation, SEAP absorbance 620 nm
Protocol: 1.5×10^4 HEK-Blue™ hTLR7 (Invivogen, San Diego, CA) or HEK-Blue™ mTLR7 (Invivogen, San Diego, CA) reporter cells were treated with a titration series of test compound (4-fold titration from 15 pM, 11 points). […] Cells with test compound were incubated overnight at 37° C.+5% CO2, and the amount of secreted embryonic alkaline phosphatase (SEAP) was determined by measuring absorbance (620 nm) using a Synergy™ H1 microplate reader. […]
Numeric answer only, unit µM assumed.

Some solved cases for reference:
{"compound-structure-string": "CCCCOc1nc(N)c2nc(O)n(Cc3ccc(N4CCC5(CCNCC5)CC4)nc3)c2n1", "tested-system": "mTLR7 (Mus musculus, UniProt P58681)", "value-unit": "µM", "EC50": 0.0057}
{"compound-structure-string": "CCOc1nc(N)c2nc(O)n(Cc3ccc(CNCCN4CCOCC4)cc3OC)c2n1", "tested-system": "mTLR7 (Mus musculus, UniProt P58681)", "value-unit": "µM", "EC50": 0.157}

Consider the record given below.
# get_value(readout='EC50', item= CCOc1nc(N)c2nc(O)n(Cc3ccc(CN[C@H](CO)[C@@H](C)CC)cc3OC)c2n1 )
0.0102

meta.source: patent US20250170266A1
